target: Protein farnesyltransferase (Rattus norvegicus, UniProt Q02293+Q04631); assay: Inhibition of Farnesyltransferase in cells, evaluated in a radiotracer assay for farnesyltransferase inhibition (CRAFTI), in cultured H-ras-transformed Rat cells
VALUE_TYPE: pIC50
// returns pIC50 (minus log10 of molar concentration), number only

N#Cc1ccc2cc1Oc1ccc3cccc(c3c1)N1CC[C@@H](NC(=O)Cc3cncn3C2)C1=O: 7.89
N#Cc1ccc2cc1Oc1ccc3c(c1)[C@@H](CCO3)N1CC[C@@H](NCc3cncn3C2)C1=O: 10.20
N#Cc1ccc2cc1Oc1ccc3c(c1)[C@@H](CCO3)N1CC[C@H](NCc3cncn3C2)C1=O: 8.74
N#Cc1ccc2cc1Oc1ccc3c(c1)[C@@H](CCC3)N1CC[C@H](NCc3cncn3C2)C1=O: 9.68
N#Cc1ccc2cc1Oc1cccc(c1)CN1CC[C@@H](NCc3cncn3C2)C1=O: 9.18
CN1Cc2cncn2Cc2ccc(C#N)c(c2)Oc2ccc3cccc(c3c2)N2CCC1C2=O (centres undefined): 7.41
N#Cc1ccc2cc1Oc1ccc3c(c1)[C@@H](CCC3)N1CC[C@@H](NCc3cncn3C2)C1=O: 10.27
N#Cc1ccc2cc1Oc1ccc(Br)c(c1)CN1CCC(NCc3cncn3C2)C1=O (centres undefined): 9.72

// query For the molecule shown here, `N#Cc1ccc2cc1Oc1ccc3cccc(c3c1)N1CC[C@H](NC(=O)Cc3cncn3C2)C1=O` , give the reported pIC50.
// result 8.17

###

Listed below: clearance values for each entry.
assay: Clearance in dog (dose 1 mg/kg i.v.); settings: plasma, iv
Lab book: enter the figure in mL/min/kg, no units written.

N#Cc1ccc2cc1Oc1ccc3cccc(c3c1)N1CCC(NCCc3cncn3C2)C1=O (stereo in doubt; 66): 3.9

// next entry
// query For the compound shown here, `N#Cc1ccc2cc1Oc1ccc3c(c1)[C@@H](CCO3)N1CC[C@@H](NCc3cncn3C2)C1=O` , give the reported clearance.
// result 5.5

###

test: Pharmacokinetic data at 1 mg/kg dose given to dogs intravenously; assay type: ADME, organism-based, Canis lupus familiaris; set-up: dose 1 mg/kg, route intravenous; conditions: dog, plasma, iv, read-out: Clp
VALUE_TYPE: clearance (mL/min/kg)
Lab book: enter the figure in mL/min/kg, no units written.

// query For the molecule shown here, `N#Cc1ccc(Cn2cncc2CN[C@H]2CCN(Cc3cccc(Cl)c3)C2=O)cc1` , give the reported clearance.
// result 5.8

###

test: Pharmacokinetic data at 0.5 mg/kg dose given to dogs intravenously.; type: ADME, organism-based, Canis lupus familiaris; design: dose 0.5 mg/kg, route intravenous; conditions: dog, in vivo, iv
VALUE_TYPE: log10 of half-life (log10 of the value in h)
Would you kindly interpret these values as log10 of half-life expressed in h?

CN1CCc2cncn2Cc2ccc(C#N)c(c2)Oc2ccc3cccc(c3c2)N2CC[C@H]1C2=O: 0.28
N#Cc1ccc2cc1Oc1ccc3c(c1)[C@@H](CC3)N1CC[C@@H](NCc3cncn3C2)C1=O: 0.23
N#Cc1ccc2cc1Oc1ccc3cccc(c3c1)N1CC[C@H](NC(=O)Cc3cncn3C2)C1=O: 0.23
N#Cc1ccc2cc1Oc1ccc(Br)c(c1)CN1CCC(NCc3cncn3C2)C1=O (centres undefined): 0.20
CC1c2ccc(C#N)c(c2)Oc2cccc(c2)CN2CCC(NCc3cncn31)C2=O (single isomer, unassigned; diastereomer B): -0.11

// next entry
// query For the compound shown here, CN1Cc2cncn2Cc2ccc(C#N)c(c2)Oc2ccc3cccc(c3c2)N2CCC1C2=O (centres undefined) , give the reported log10 of half-life.
// result 1.00

###

test: Bioavailability in dog (dose 1 mg/kg i.v.); details: in vivo, iv
Listed below: half-life values for each entry.
Lab book: enter the figure in h, no units written.

N#Cc1ccc2cc1Oc1ccc3c(c1)[C@@H](CCO3)N1CC[C@@H](NCc3cncn3C2)C1=O: 0.9

// next entry
// query For the compound shown here, N#Cc1ccc2cc1Oc1ccc3cccc(c3c1)N1CCC(NCCc3cncn3C2)C1=O (stereo in doubt; 66) , give the reported half-life.
// result 2

###

experiment: Pharmacokinetic data for dose given to dogs intravenously (oral PK study in parentheses); type: ADME, organism-based, Canis lupus familiaris; details: dog, in vivo
VALUE_TYPE: bioavailability (%)
Lab book: enter the figure in %, no units written.

// query For the molecule shown here, `N#Cc1ccc(Cn2cncc2CN[C@H]2CCN(Cc3cccc(Cl)c3)C2=O)cc1` , give the reported bioavailability.
// result 81

###

molecular target: Cytochrome P450 3A4 (Homo sapiens); assay: Inhibition of human Cytochrome P450 3A4 by macrocycles
Sequence (P08684 whole entry): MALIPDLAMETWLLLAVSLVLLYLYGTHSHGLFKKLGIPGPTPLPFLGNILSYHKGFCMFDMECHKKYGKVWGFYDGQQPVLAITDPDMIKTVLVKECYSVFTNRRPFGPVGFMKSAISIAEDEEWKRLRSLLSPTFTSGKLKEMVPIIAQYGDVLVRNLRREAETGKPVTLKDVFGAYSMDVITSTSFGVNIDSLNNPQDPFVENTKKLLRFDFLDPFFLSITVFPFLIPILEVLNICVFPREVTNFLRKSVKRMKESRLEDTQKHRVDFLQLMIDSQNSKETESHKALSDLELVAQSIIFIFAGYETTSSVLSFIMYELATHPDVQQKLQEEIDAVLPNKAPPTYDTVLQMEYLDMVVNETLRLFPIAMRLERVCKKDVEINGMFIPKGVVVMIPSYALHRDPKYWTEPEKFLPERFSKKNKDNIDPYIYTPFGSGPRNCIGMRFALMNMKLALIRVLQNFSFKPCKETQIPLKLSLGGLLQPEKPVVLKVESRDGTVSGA
VALUE_TYPE: pIC50
// returns pIC50 (minus log10 of molar concentration), number only

N#Cc1ccc2cc1Oc1ccc3c(c1)[C@@H](CC3)N1CC[C@@H](NCc3cncn3C2)C1=O: 5.18

// query Kindly state the measured pIC50 obtained for N#Cc1ccc2cc1Oc1ccc3cccc(c3c1)N1CCC(NCCc3cncn3C2)C1=O (stereo in doubt; 66) with Cytochrome P450 3A4 (Homo sapiens).
// result 5.22

// query Next record, please: CN1Cc2cncn2Cc2ccc(C#N)c(c2)Oc2ccc3cccc(c3c2)N2CCC1C2=O (configuration not stated)
// result 5.30

// query Next record, please: `N#Cc1ccc2cc1Oc1ccc3c(c1)[C@H](CC3)N1CC[C@@H](NCc3cncn3C2)C1=O`
// result 5.55

// query Next record, please: `N#Cc1ccc(Cn2cncc2CN[C@H]2CCN(Cc3cccc(Cl)c3)C2=O)cc1`
// result 6.00

// query Next record, please: N#Cc1ccc2cc1Oc1ccc(Br)c(c1)CN1CCC(NCc3cncn3C2)C1=O (configuration not stated)
// result 5.21

###

biological target: Voltage-gated inwardly rectifying potassium channel KCNH2 (Homo sapiens)
Sequence (Q12809 whole entry): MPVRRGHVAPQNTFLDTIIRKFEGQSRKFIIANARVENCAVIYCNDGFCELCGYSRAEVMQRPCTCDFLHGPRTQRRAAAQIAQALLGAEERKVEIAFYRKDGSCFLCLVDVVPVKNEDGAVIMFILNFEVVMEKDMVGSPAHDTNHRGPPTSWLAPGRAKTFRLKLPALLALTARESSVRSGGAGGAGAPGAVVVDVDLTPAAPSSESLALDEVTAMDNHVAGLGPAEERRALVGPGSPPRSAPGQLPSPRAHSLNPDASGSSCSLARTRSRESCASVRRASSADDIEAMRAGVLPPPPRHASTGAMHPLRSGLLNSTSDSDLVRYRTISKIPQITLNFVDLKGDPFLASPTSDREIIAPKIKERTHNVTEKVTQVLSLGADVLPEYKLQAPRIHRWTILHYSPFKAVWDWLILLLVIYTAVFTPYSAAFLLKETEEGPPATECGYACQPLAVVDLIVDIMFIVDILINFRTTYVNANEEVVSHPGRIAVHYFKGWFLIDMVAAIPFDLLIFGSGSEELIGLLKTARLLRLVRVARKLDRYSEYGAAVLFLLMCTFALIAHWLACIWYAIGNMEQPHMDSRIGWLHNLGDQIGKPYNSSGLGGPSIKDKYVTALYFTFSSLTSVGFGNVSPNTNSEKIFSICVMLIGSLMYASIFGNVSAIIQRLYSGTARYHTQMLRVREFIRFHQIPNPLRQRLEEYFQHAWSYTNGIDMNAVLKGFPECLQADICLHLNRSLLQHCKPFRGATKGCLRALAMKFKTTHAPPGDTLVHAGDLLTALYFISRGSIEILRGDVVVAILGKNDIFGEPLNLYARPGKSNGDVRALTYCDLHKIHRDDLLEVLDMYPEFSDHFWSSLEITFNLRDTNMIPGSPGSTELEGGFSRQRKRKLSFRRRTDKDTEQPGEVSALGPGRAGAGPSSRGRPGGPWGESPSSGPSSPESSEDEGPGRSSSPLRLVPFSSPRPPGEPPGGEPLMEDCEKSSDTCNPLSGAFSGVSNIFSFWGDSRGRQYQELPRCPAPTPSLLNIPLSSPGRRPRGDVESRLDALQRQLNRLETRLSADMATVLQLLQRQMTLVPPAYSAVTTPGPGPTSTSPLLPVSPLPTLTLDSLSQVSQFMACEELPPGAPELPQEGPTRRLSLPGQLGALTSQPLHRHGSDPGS
VALUE_TYPE: pIC50
// returns pIC50 (minus log10 of molar concentration), number only

// query Kindly state the measured pIC50 obtained for CN1Cc2cncn2Cc2ccc(C#N)c(c2)Oc2ccc3c(c2)C(CC3)N2CCC1C2=O (stereo unspecified) with Voltage-gated inwardly rectifying potassium channel KCNH2 (Homo sapiens).
// result 5.59

###

biological target: Geranylgeranyl transferase type I (Homo sapiens, UniProt P49354+P53609); experiment: Inhibitory activity against geranylgeranyl transferase
Listed below: IC50 values for each entry.
Lab book: enter the figure in µM, no units written.

In the examples that follow, each entry is paired with its recorded IC50.
N#Cc1ccc2cc1Oc1cccc(c1)C(c1cccc(Cl)c1)N1CCC(NCc3cncn3C2)C1=O (single isomer, unassigned; diastereomer A): 0.82
N#Cc1ccc2cc1Oc1ccc3c(c1)[C@@H](CCC3)N1CC[C@H](NCc3cncn3C2)C1=O: 2.2
N#Cc1ccc2cc1Oc1cccc(c1)C(c1ccccc1)N1CCC(NCc3cncn3C2)C1=O (single isomer, unassigned; diastereomer B): 5.8
N#Cc1ccc2cc1Oc1ccc3c(c1)[C@@H](CCC3)N1CC[C@@H](NCc3cncn3C2)C1=O: 0.39

// query Kindly state the measured IC50 obtained for N#Cc1ccc2cc1Oc1ccc(Br)c(c1)CN1CCC(NCc3cncn3C2)C1=O (configuration not stated) with Geranylgeranyl transferase type I (Homo sapiens, UniProt P49354+P53609).
// result 9.2

###

target: Protein farnesyltransferase (Rattus norvegicus, UniProt Q02293+Q04631); assay: Inhibition of Farnesyltransferase in H-ras-transformed Rat cells by radiotracer assay (CRAFTI)
VALUE_TYPE: IC50 (nM)
Lab book: enter the figure in nM, no units written.

In the examples that follow, each entry is paired with its recorded IC50.
N#Cc1ccc2cc1Oc1cccc(c1)C(c1cccc(Cl)c1)N1CCC(NCc3cncn3C2)C1=O (single isomer, unassigned; diastereomer A): 210
N#Cc1ccc2cc1Oc1cccc(c1)CN1CC[C@H](NCc3cncn3C2)C1=O: 13
N#Cc1ccc2cc1Oc1cccc(c1)C(c1ccccc1)N1CCC(NCc3cncn3C2)C1=O (single isomer, unassigned; diastereomer B): 34

// query For the molecule shown here, N#Cc1ccc2cc1Oc1cc(Cl)cc(c1)CN1CCC(NCc3cncn3C2)C1=O (centres undefined) , give the reported IC50.
// result 6.4

###

Listed below: IC50 values for each entry.
molecular target: Protein farnesyltransferase (Rattus norvegicus, UniProt Q02293+Q04631); assay: Inhibition of Farnesyltransferase in cells, evaluated in a radiotracer assay for farnesyltransferase inhibition (CRAFTI), in cultured H-ras-transformed Rat cells
Lab book: enter the figure in pM, no units written.

N#Cc1ccc2cc1Oc1cccc(c1)-c1ccccc1N1CCC(NCc3cncn3C2)C1=O (centres undefined): 32
CN1Cc2cncn2Cc2ccc(C#N)c(c2)Oc2ccc3c(c2)C(CC3)N2CCC1C2=O (centres undefined): 640

// query For the molecule shown here, `N#Cc1ccc2cc1Oc1ccc3c(c1)[C@@H](CC3)N1CC[C@@H](NCc3cncn3C2)C1=O` , give the reported IC50.
// result 220

// query Next record, please: N#Cc1ccc2cc1Oc1ccc3cccc(c3c1)N1CCC(NCCc3cncn3C2)C1=O (stereo in doubt; 66)
// result 320
